Task for the reader: assign each of the following binders its reported IC50.
# Measurement Target: T1, human MCH receptor (membranes from a stable CHO or HEK-293 cell line) (human, UniProt Q99705 1-353)
# T1 construct: whole, on cells; also called cloned human MCH receptor (CHO clone)
# T1 sequence (Q99705 whole entry): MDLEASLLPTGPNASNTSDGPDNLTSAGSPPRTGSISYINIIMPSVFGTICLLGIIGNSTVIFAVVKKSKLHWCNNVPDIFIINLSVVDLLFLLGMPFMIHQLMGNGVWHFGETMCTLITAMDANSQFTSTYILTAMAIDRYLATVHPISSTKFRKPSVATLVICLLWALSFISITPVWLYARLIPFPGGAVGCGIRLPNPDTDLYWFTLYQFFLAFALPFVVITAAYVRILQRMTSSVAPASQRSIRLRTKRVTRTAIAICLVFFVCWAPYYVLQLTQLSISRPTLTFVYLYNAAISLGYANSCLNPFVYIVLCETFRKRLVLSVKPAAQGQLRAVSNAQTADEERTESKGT
# Run Description: SPA competition vs [125I]-human MCH (Phe13,Tyr19); human MCH receptor cell membranes
Bridges are numbered along the chain shown (N, C = ends). Where no end group is shown, it is not given here.
Report the value in nM with no unit label.

[Q] IC50 lookup needed for DFAMLRCMLGRVFRPCWQY (disulfide 7-16 (inferred)) , thanks.
[A] 0.5

[Q] IC50 lookup needed for Ac-CMLGRVYRPC-NH2 (disulfide 1-10; SMILES CSCC[C@@H]1NC(=O)[C@@H](NC(C)=O)CSSC[C@@H](C(N)=O)NC(=O)[C@@H]2CCCN2C(=O)[C@H](CCCNC(=N)N)NC(=O)[C@H](Cc2ccc(O)cc2)NC(=O)[C@H](C(C)C)NC(=O)[C@H](CCCNC(=N)N)NC(=O)CNC(=O)[C@H](CC(C)C)NC1=O) [truncated MCH analog SEQ. ID. NO. 9: Ac-Cys-Met-Leu-Gly-Arg-Val-Tyr-Arg-Pro-Cys-amide] , thanks.
[A] 1.6

[Q] IC50 lookup needed for Ac-CMLGRVYRPCWQV (disulfide 1-10 (inferred)) [MCH analog SEQ. ID. NO. 12: Ac-Cys-Met-Leu-Gly-Arg-Val-Tyr-Arg-Pro-Cys-Trp-Gln-Val] , thanks.
[A] 6.4

[Q] IC50 lookup needed for Ac-RCMLGRVYRPC-NH2 (disulfide 2-11 (inferred), Corresponds to MCH positions 6-16; also called ID; NO; 7 MCH analog) [truncated MCH analog SEQ. ID. NO. 7: Ac-Arg-Cys-Met-Leu-Gly-Arg-Val-Tyr-Arg-Pro-Cys-amide] , thanks.
[A] 0.12
